Measured values drawn from PubChem BioAssay (NCATS) for this set.

Test: Viability qHTS for spleen associated tyrosine kinase inhibitor (SYKi) naive MV4-11 cells (AID 1963823); note: nearly all actives have a fitted effect of over 40% in size; note: potency is the fitted concentration of half-maximal effect
Conditions: MV4-11 AML viability, CellTiter-Glo luminescence, 72 h; series mostly up to 45 µM
Results filed as inconclusive are left out. Calls of active or inactive are those of the source. Calls come from the whole dose curve; as a rule, active = well fitted cell-killing curve with a large enough effect; inconclusive = small, poorly fitted or top-dose-only effect, or effect the other way; inactive = no such curve, though single readings can be large or run the other way.

>  <COMPOUND>
O=C(O)CC1CC(c2ccccc2)=NO1 (stereo not drawn)

>  <Potency>
inactive

$$$$
>  <COMPOUND>
CCCc1cc(C)[nH]c(=O)c1CNC(=O)c1cc(-c2ccnc(N3CCN(C)CC3)c2)cc2c1cnn2C(C)C

>  <Potency>
14.8 µM (active)

$$$$
>  <COMPOUND>
COc1cc2c(cc1O)[C@H](c1ccc(O[C@@H]3O[C@H](CO)[C@@H](O)[C@H](O)[C@H]3O)c(OC)c1)[C@@H](CO)[C@](O)(CO)C2

>  <Potency>
inactive

$$$$
>  <COMPOUND>
OC1(c2ccc(Cl)cc2)CCNCC1

>  <Potency>
inactive

$$$$
>  <COMPOUND>
Clc1cccc(Cl)c1NC1=NCCN1

>  <Potency>
inactive

$$$$
>  <COMPOUND>
CC(C)C[C@H](CO)Nc1nc(S[C@@H](C)c2ccccc2)nc2nc(N)sc12

>  <Potency>
14.6 µM (active)

$$$$
>  <COMPOUND>
COC(=O)[C@]12C(=O)C(C)=C(O)[C@@]1(C)C(C)=CC1[C@@]34CC[C@@H](OC(C)=O)C(C)(C)C3[C@H](C[C@]12C)OC4=O (stereo partly drawn)

>  <Potency>
inactive

$$$$
>  <COMPOUND>
C=C(C(=O)O)C1CC2=C(C)C(=O)CC2C(C)CC1O (stereo not drawn)

>  <Potency>
4.61 µM (active)

$$$$
>  <COMPOUND>
Cc1cn(C[C@H](N)C(=O)O)c(=O)n(Cc2ccsc2C(=O)O)c1=O

>  <Potency>
inactive

$$$$
>  <COMPOUND>
COc1ccnc2[nH]cc(C(=O)C(=O)N3CCN(C(=O)c4ccccc4)CC3C)c12 (stereo not drawn)

>  <Potency>
inactive

$$$$
>  <COMPOUND>
O=C(Nc1nnc(-c2ccc3c(c2)OCCO3)o1)C1CCCCC1

>  <Potency>
inactive

$$$$
>  <COMPOUND>
C/C=C1/[C@H](O[C@@H]2O[C@H](CO)[C@@H](O)[C@H](O)[C@H]2O)OC=C(C(=O)OC)[C@H]1CC(=O)O[C@@H]1O[C@H](CO)[C@@H](O)[C@H](O)[C@H]1O

>  <Potency>
inactive

$$$$
>  <COMPOUND>
C[C@H](CCC(=O)O)[C@H]1CC[C@H]2[C@@H]3[C@H](O)C[C@@H]4C[C@H](O)CC[C@]4(C)[C@H]3CC[C@]12C

>  <Potency>
inactive

$$$$
>  <COMPOUND>
CS(=O)(=O)N1CCC(NC(=O)c2[nH]ncc2NC(=O)c2c(Cl)cccc2Cl)CC1

>  <Potency>
0.934 µM (active)

$$$$
>  <COMPOUND>
CC1=C[C@@H]2[C@@H]([C@@H](O)C[C@@]3(C)[C@H]2C[C@@H](C)[C@]3(O)C(=O)CO)[C@@]2(C)Cc3cnn(-c4ccccc4)c3C=C12

>  <Potency>
0.731 µM (active)

$$$$
>  <COMPOUND>
Nc1ncnc2c1c(I)cn2[C@@H]1C[C@H](N)[C@@H](O)[C@H]1O

>  <Potency>
2.91 µM (active)

$$$$
>  <COMPOUND>
Cc1ccc(C(=O)Nc2cccc(C(F)(F)F)c2)cc1Nc1nc(-c2cccnc2)nc2c1cnn2C

>  <Potency>
8.33 µM (active)

$$$$
>  <COMPOUND>
Cc1c(-c2ccccc2)oc2c(C(=O)OCCN3CCCCC3)cccc2c1=O

>  <Potency>
inactive

$$$$
